# measurement-notes: in vitro stability of ^89Zr complexes in 0.1 M sodium phosphate buffer pH 6.5
# Type: physicochemical
# condition-summary: 1 Day; 0.1 M sodium phosphate buffer pH 6.5, 10% DMSO, 37° C.
measurement-kind: Fraction of intact complex

>>> df
                                   compound  result
0  CC(=O)N(O)CCCCCNC(=O)CCC(=O)N(O)CCCCCNC(=O)CCC(=O)N(O)CCCCCN [DFB, desferrioxamine B, reference compound]     99%
1  O=C1CCCCCN(O)C(=O)CCCCCN(O)C(=O)CCCCCN(O)C(=O)CCCCCN1O     69%
2  O=C1CCCCCCCN(O)C(=O)CCCCCCCN(O)C(=O)CCCCCCCN(O)C(=O)CCCCCCCN1O    >99%
3  O=C1CCCCCCN(O)C(=O)CCCCCCN(O)C(=O)CCCCCCN(O)C(=O)CCCCCCN1O     89%
4  CCCCCC(=O)N(O)CCCCCCC(=O)N(O)CCCCCCC(=O)N(O)CCCCCCC(=O)N(O)CCC     97%
5  CCCCCCC(=O)N(O)CCCCCCCC(=O)N(O)CCCCCCCC(=O)N(O)CCCCCCCC(=O)N(O)CCC     99%
6  CCCCC(=O)N(O)CCCCCC(=O)N(O)CCCCCC(=O)N(O)CCCCCC(=O)N(O)CCC     93%
